Data provenance: patent US8729091B2

Each entry below carries its reported EC50.
target: human GPBAR1 receptor (Homo sapiens); assay: functional cAMP assay in CHO-dhfr(minus) cells expressing human GPBAR1 receptors; conditions: cAMP increase (TR-FRET) in CHO-dhfr(minus) cells expressing human GPBAR1; compounds incubated 30 min at 30° C.
Property label: EC50 (nM)

• CNc1cc(F)c(F)cc1N(C)C(=O)c1cnccc1Oc1cc(Cl)ccc1Cl = 400
• CCOC(=O)c1nnc(NC(=O)c2cc(Cl)c(Oc3ccncc3C(=O)N3CCN(C4CC4)c4ccccc43)cc2Cl)s1 = 100
• O=C(Nc1nncs1)c1cc(Cl)c(Oc2ccncc2C(=O)N2CCN(C3CC3)c3ccccc32)cc1Cl = 200
• COc1ncccc1N(C)C(=O)c1cnccc1Oc1cc(Cl)ccc1Cl = 100
• Cc1ccccc1N(C)C(=O)c1cnccc1Oc1cc(Cl)ccc1Cl = 200
• COC(=O)c1cc(Cl)c(Oc2ccncc2C(=O)N2CCN(C3CC3)c3ccccc32)cc1Cl = 4
• Cc1nc(NC(=O)c2cc(Cl)c(Oc3ccncc3C(=O)N3CCN(C4CC4)c4ccccc43)cc2Cl)sc1C(=O)O = 30
• O=C(Nc1cccc2c1NCCC2)c1cnccc1Oc1cc(Cl)ccc1Cl = 900
• Cn1cc(NC(=O)c2cc(Cl)c(Oc3ccncc3C(=O)N3CCN(C4CC4)c4ccccc43)cc2Cl)cc1C(=O)O = 100
• O=C(c1c[n+]([O-])ccc1Oc1cc(Cl)ccc1Cl)N1CCCc2ccccc21 = 700
• O=C(c1cnccc1Oc1cc(Cl)c(CO)cc1Cl)N1CCN(C2CC2)c2ccccc21 = 3
• O=C(c1cnccc1Oc1cc(Cl)c(Br)cc1Cl)N1CCN(C2CC2)c2ccccc21 = 4
• O=C(c1cnc(Cl)cc1Oc1cc(Cl)ccc1Cl)N1CCCc2ccccc21 = 22
• CN(C)c1ccc(Cl)cc1N(C)C(=O)c1cnccc1Oc1cc(Cl)ccc1Cl = 400
• CCOC(=O)C1CC1CN1CCN(C(=O)c2cnccc2Oc2cc(Cl)ccc2Cl)c2ccccc21 (centres unmarked) = 1800
• CN1CCN(C(=O)c2cnccc2Oc2cc(Cl)ccc2Cl)c2ccccc21 = 3
• CS(=O)(=O)N1CCN(C(=O)c2cnccc2Oc2cc(Cl)ccc2Cl)c2ccccc21 = 300

----------
Each entry below carries its reported EC50.
target: human GPBAR1 receptor (Homo sapiens, UniProt Q8TDU6); assay: functional cAMP assay in CHO-dhfr(minus) cells expressing human GPBAR1 receptors; conditions: cAMP increase (TR-FRET) in CHO-dhfr(minus) cells expressing human GPBAR1; compounds incubated 30 min at 30° C.
Sequence (Q8TDU6 whole entry): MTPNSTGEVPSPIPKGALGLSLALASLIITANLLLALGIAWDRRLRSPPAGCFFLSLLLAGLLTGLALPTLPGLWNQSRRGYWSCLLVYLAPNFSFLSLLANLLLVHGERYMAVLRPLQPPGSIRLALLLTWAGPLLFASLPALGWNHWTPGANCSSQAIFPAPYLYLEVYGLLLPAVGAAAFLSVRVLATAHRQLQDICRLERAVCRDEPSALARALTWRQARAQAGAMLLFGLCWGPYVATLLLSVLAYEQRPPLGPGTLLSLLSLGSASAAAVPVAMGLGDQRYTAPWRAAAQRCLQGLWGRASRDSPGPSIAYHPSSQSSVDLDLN
Property label: EC50 (nM)

- O=C(c1cncnc1Oc1cc(Cl)ccc1Cl)N1CCNc2ccccc21: 300
- O=C(c1cnccc1Oc1cc(Cl)ccc1Cl)N1CCN(C2CC2)c2cc(Cl)ccc21: 10
- O=C(c1cnccc1Oc1cc(Cl)c(OCCO)cc1Cl)N1CCN(C2CC2)c2ccccc21: 12
- CN(CC(=O)O)C(=O)c1cc(Cl)c(Oc2ccncc2C(=O)N2CCN(C3CC3)c3ccccc32)cc1Cl: 900
- Cc1cc(Oc2cc(Cl)ccc2Cl)c(C(=O)N2CCN(C3CC3)c3ccccc32)cn1: 1
- O=C(NCc1nnn[nH]1)c1cc(Cl)c(Oc2ccncc2C(=O)N2CCN(C3CC3)c3ccccc32)cc1Cl: 400
- CN(C(=O)c1cnccc1Oc1cc(Cl)ccc1Cl)c1ccccc1N1CCCCC1: 1900
- O=C(O)CCCNC(=O)c1cc(Cl)c(Oc2ccncc2C(=O)N2CCN(C3CC3)c3ccccc32)cc1Cl: 200

----------
target: human GPBAR1 receptor (Homo sapiens); experiment: functional cAMP assay in CHO-dhfr(minus) cells expressing human GPBAR1 receptors; conditions: cAMP increase (TR-FRET) in CHO-dhfr(minus) cells expressing human GPBAR1; compounds incubated 30 min at 30° C.
pEC50: −log10 of the molar value.
Property label: pEC50

- COC(=O)CN(C)C(=O)c1cc(Cl)c(Oc2ccncc2C(=O)N2CCN(C3CC3)c3ccccc32)cc1Cl: 7.00
- COC(=O)CCC(CCC(=O)OC)NC(=O)c1cc(Cl)c(Oc2ccncc2C(=O)N2CCN(C3CC3)c3ccccc32)cc1Cl: 6.52
- O=C(NCCCS(=O)(=O)O)c1cc(Cl)c(Oc2ccncc2C(=O)N2CCN(C3CC3)c3ccccc32)cc1Cl: 6.05
- COc1ccc(F)cc1N(C)C(=O)c1cnccc1Oc1cc(Cl)ccc1Cl: 7.00

----------
target: UniProt:Q8TDU6; experiment: functional cAMP assay in CHO-dhfr(minus) cells expressing human GPBAR1 receptors; conditions: cAMP increase (TR-FRET) in CHO-dhfr(minus) cells expressing human GPBAR1; compounds incubated 30 min at 30° C.
pEC50: −log10 of the molar value.
Each entry below carries its reported pEC50.
Property label: pEC50

• O=C(NCCO)c1cc(Cl)c(Oc2ccncc2C(=O)N2CCN(C3CC3)c3ccccc32)cc1Cl = 7.40
• CN(CCS(=O)(=O)O)C(=O)c1cc(Cl)c(Oc2ccncc2C(=O)N2CCN(C3CC3)c3ccccc32)cc1Cl = 6.52
• Cc1cc(Oc2cc(Cl)ccc2Cl)c(C(=O)N2CCN(C3CC3)c3ccccc32)c(Cl)n1 = 7.30
• COC(=O)c1cc(Cl)c(Oc2ccncc2C(=O)N2CCN(C3CC3)c3ccccc32)cc1C(=O)OC = 8.40
• CCOC(=O)CCNC(=O)c1cc(Cl)c(Oc2cc(C)ncc2C(=O)N2CCN(C3CC3)c3ccccc32)cc1Cl = 7.70
• O=C(c1cnccc1Oc1cc(Cl)ccc1Cl)N1CCNc2ccccc21 = 7.00
• O=C(c1cncnc1Oc1cc(Cl)ccc1Cl)N1CCCc2cc(F)ccc21 = 6.40
